Measured inhibition of individual entries
- protocol: NOD1 signaling inhibitors, primary screen, cell-based, luminescence, uHTS (AID 1578);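 further: HEK-293T reporter cells stimulated with the NOD1 agonist gamma-tri-DAP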
- assay.setup: NOD1-driven NF-kB luciferase reporter cells, at 4 µM, active compounds read high
The whole screen tested about 290,000 compounds, of which about 3,000 (1%) were called active. Shown is part of a subset that was picked to be rich in actives.
Form entry: value (%) — number only.

Consider the following illustrative entries.
molecule | inhibition (%)
COc1ccc(Br)cc1C(=O)NC(=S)Nc1ccc2[nH]c(=O)[nH]c2c1 | -35.1
COc1cc(C(C(=O)NC2CCCCC2)N(Cc2ccco2)C(=O)c2cnccn2)cc(OC)c1OC (stereo not given) | -34.1
O=C(O)c1ccc(Nc2nc3c(s2)CCCC3)cc1 | 69.2

I have this molecule here, `Cc1ccc(/C=C2\SC(=S)N(CCC(=O)NNC(=O)c3ccccc3O)C2=O)cc1` , and I need its recorded inhibition.
-24.7

Find the recorded inhibition belonging to `CCCCCCc1cc2cc(C(=O)Nc3ccc(OC)cc3)c(=O)oc2cc1O` and report it.
-7.5

Give the measured inhibition of `Cc1ccc(C(=O)NC(=S)N2CCN(C)CC2)cc1` .
-21.2

// returns reported inhibition for input `COc1ccc(NC2=NC(=S)N(c3ccccc3C)C23CCCCC3)cc1`
-2.5

Endpoint output: inhibition of `Cc1cccc(Nc2nc3c(s2)CCCC3)c1` . Value?
-49.8

These measurements were taken from PubChem BioAssay AID1578.
